# Target Of Assay: hFASN enzyme (full length) (Homo sapiens)
# Construct: 10 μL hFASN enzyme (full length, 300 ng, purified in house); made in house
# Sequence (P49327 whole entry): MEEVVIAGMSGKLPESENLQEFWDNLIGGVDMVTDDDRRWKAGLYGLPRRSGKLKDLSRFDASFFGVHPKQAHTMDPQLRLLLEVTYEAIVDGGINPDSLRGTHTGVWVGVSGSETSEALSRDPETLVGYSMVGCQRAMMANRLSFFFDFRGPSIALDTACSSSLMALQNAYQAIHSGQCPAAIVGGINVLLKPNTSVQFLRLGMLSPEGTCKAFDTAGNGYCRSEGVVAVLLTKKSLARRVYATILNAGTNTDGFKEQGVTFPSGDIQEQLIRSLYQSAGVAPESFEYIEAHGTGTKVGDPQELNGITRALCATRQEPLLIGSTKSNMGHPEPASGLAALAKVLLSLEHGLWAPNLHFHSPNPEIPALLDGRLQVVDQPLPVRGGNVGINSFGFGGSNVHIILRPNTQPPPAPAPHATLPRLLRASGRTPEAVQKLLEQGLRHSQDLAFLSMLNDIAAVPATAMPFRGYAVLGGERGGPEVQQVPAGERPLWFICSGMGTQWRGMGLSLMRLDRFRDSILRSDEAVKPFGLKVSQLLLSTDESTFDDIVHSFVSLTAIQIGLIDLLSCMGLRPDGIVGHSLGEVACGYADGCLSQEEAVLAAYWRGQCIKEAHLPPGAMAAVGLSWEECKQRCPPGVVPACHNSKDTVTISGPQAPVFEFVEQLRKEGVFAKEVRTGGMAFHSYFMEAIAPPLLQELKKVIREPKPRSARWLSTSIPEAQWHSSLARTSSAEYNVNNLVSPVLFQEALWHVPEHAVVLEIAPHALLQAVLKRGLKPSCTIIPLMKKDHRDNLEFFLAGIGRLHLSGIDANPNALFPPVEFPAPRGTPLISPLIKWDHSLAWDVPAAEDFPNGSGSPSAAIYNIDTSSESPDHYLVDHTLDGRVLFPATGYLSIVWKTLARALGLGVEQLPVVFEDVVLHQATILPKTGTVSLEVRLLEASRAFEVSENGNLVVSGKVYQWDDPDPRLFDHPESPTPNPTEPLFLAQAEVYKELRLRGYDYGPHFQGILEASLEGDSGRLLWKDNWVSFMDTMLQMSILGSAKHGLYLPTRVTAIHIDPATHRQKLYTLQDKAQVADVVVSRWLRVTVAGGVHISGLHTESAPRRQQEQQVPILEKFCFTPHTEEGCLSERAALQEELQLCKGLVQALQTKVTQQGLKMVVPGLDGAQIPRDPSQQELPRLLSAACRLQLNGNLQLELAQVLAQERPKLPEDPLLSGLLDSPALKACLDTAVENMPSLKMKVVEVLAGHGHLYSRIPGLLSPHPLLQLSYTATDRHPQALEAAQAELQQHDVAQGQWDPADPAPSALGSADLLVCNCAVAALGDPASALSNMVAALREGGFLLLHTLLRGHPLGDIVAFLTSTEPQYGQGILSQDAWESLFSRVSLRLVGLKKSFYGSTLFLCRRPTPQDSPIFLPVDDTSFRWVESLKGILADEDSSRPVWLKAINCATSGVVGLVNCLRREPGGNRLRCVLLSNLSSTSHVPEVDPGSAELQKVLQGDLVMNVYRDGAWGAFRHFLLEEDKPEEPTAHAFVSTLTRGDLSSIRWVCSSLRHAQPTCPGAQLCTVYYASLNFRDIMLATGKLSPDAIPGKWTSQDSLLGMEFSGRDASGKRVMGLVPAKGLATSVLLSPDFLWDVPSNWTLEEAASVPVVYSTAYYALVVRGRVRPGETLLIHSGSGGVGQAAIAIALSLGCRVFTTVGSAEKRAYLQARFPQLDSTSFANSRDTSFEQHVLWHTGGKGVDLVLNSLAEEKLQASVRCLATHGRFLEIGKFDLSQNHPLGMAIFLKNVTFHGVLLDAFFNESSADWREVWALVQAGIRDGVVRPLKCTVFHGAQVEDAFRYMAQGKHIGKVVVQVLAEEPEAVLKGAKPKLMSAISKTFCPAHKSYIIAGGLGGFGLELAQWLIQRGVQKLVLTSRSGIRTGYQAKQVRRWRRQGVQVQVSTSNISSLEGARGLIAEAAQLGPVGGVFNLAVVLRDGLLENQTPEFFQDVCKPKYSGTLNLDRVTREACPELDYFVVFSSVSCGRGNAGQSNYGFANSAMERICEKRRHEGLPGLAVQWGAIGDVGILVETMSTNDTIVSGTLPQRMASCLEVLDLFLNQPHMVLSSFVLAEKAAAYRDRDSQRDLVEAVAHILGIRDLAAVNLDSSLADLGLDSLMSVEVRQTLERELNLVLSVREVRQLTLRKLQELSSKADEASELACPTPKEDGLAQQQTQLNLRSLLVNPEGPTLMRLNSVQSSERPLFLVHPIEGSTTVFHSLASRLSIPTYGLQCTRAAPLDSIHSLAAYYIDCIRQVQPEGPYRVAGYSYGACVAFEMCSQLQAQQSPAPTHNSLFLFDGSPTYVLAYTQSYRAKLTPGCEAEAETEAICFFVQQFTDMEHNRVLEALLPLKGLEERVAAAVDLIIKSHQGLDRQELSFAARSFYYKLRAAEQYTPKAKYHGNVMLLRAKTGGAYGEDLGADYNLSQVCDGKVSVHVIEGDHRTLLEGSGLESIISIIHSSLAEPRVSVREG
# Procedure Details: Fatty Acid Synthase (FASN) inhibition scintillation proximity assay
# Type: biochemical
# Test Context: read-out: Human FASN pIC50 (converted)
Measurement Label: IC50 (nM)
State the answer as a number, implicitly in nM.

# Molecule, Unit Label, IC50
records = [
    ("O=C(C1CC1)N1CC[C@@H](CN2C(=O)C3(CC3)N=C2c2ccc(-c3cccc4[nH]ncc34)s2)C1", "nM", 417),
]

[Q] Would you mind telling me what IC50 value was observed for Cn1ncc2cc(-c3ccc(C4=NC5(CCCC5)C(=O)N4C[C@@H]4CCN(C(=O)C5CC5)C4)c(F)c3)ccc21 ?
[A] 79.4

[Q] # lookup: IC50 of N#Cc1ccc(-c2ccc(C3=NC4(CCCC4)C(=O)N3C[C@@H]3CCN(C(=O)C4CC4)C3)cc2)cc1
[A] 575

[Q] Dear colleague, I am looking for the recorded IC50 of the following molecule: Cn1cc(-c2ccc(-c3ccc(C4=NC5(CCOCC5)C(=O)N4CC4CN(C(=O)[C@H]5CCCO5)C4)cc3)cc2)cn1
[A] 1700
